- assay_procedure: qHTS assay for measurement of the activity of small molecule inhibitors on Zika virus induced Caspase-3 activity in human iPSC derived neural progenitor cells (hNPCs) (AID 1224857); note: % of control where 0% means no effect; nearly all actives have a fitted effect of over 65% in size
- experimental_conditions: hNPCs ZIKV-induced caspase-3/7, Caspase-Glo luminescence, 6 h; series mostly up to 45.7 µM
Records with an inconclusive call do not appear. Active and inactive are the calls of the source. Calls come from the whole dose curve; as a rule, active = well fitted inhibition curve with a large enough effect; inconclusive = small, poorly fitted or top-dose-only effect; inactive = no such curve, though single readings can be large or run the other way.
quantity: outcome

compound=CN=C(N)NCCC[C@H](N)C(=O)O quantity=outcome readout_value=inactive
compound=C#C[C@]1(OC(C)=O)CC[C@H]2[C@@H]3CCC4=C/C(=N/O)CC[C@@H]4[C@H]3CC[C@@]21CC quantity=outcome readout_value=inactive
compound="O=C1C(CCS(=O)c2ccccc2)C(=O)N(c2ccccc2)N1c1ccccc1 (stereo not drawn)" quantity=outcome readout_value=inactive
compound=CCCCCCCC/C=C\CCCCCCCCN quantity=outcome readout_value=inactive
compound=CCc1nn(CCCN2CCN(c3cccc(Cl)c3)CC2)c(=O)n1CCOc1ccccc1 quantity=outcome readout_value=inactive
compound=Nc1nc(N)c(-c2ccccc2)s1 quantity=outcome readout_value=inactive
compound=Cc1cn([C@H]2C[C@H](F)[C@@H](CO)O2)c(=O)[nH]c1=O quantity=outcome readout_value=inactive
compound=CCOC(=O)[C@@](C)(N)Cc1ccc(O)c(O)c1 quantity=outcome readout_value=inactive
compound=O=C(CN1CCN(Cc2ccc3c(c2)OCO3)CC1)N1c2ccccc2Sc2ccccc21 quantity=outcome readout_value=inactive
compound="Cc1cc(C)cc(OCC2CNC(=O)O2)c1 (stereo not drawn)" quantity=outcome readout_value=inactive
compound=COc1ccccc1N1CCN(CCCCNC(=O)c2ccc(-c3ccc(C(C)=O)cc3)cc2)CC1 quantity=outcome readout_value=inactive
compound=C=C[C@H]1CN2CC[C@H]1C[C@@H]2[C@@H](O)c1ccnc2ccc(OC)cc12 quantity=outcome readout_value=inactive
compound=O=C(Nc1cccc(C2=NCCN2)c1)Nc1cccc(C2=NCCN2)c1 quantity=outcome readout_value=inactive

###

- Tested on: ICS
- assay_procedure: qHTS profiling for inhibitors of Plasmodium falciparum proliferation (AID 504749); note: nearly all actives have a fitted effect of over 60% in size
- experimental_conditions: P. falciparum in erythrocytes, SYBR Green DNA, 72 h; series mostly up to 28.7 µM
Results filed as inconclusive are left out. Calls of active or inactive are those of the source. The call rests on the fitted dose curve; in most records, active means well fitted inhibition curve with a large enough effect; inconclusive means small, poorly fitted or top-dose-only effect; inactive means flat fitted curve, though single readings scatter.
Labels: true (1) for active, false (0) for inactive

molecule=OCc1ccccn1 class_assignment="false (0)"
molecule=Cc1ccc2c(Br)cc(Br)c(O)c2n1 class_assignment="true (1)"
molecule=O=S(c1cc(Cl)cc(Cl)c1O)c1cc(Cl)cc(Cl)c1O class_assignment="false (0)"
molecule=CCc1oc2ccccc2c1C(=O)c1cc(Br)c(O)c(Br)c1 class_assignment="false (0)"
molecule=CNCCCCOc1ccccc1Cc1ccccc1 class_assignment="true (1)"
molecule="OC1C(O)C(O)C(O)C(O)C1O (stereo not drawn)" class_assignment="false (0)"
molecule="CCc1ccc(C(=O)C(C)CN2CCCCC2)cc1 (stereo not drawn)" class_assignment="false (0)"
molecule=CCCCCCCCCCCCCC[N+](C)(C)Cc1ccccc1 class_assignment="true (1)"
molecule=COc1cc(C(=O)N2CCCCCCC2)cc(OC)c1OC class_assignment="false (0)"
molecule=CC(=O)NO class_assignment="false (0)"
molecule=Cc1ccc(S(=O)(=O)NC(=O)NC2CCCC2)cc1 class_assignment="false (0)"
molecule=CNCCc1ccccn1 class_assignment="false (0)"
molecule=CCOc1ccc(NC(C)=O)cc1 class_assignment="false (0)"
molecule=CC(C)(C)NC[C@H](O)COc1nsnc1N1CCOCC1 class_assignment="true (1)"
molecule=CC[C@H](c1ccc(O)cc1)[C@@H](CC)c1ccc(O)cc1 class_assignment="false (0)"
molecule=Cc1cccc(C)c1NC(=O)c1ccccc1C(=O)O class_assignment="false (0)"
molecule="Cc1cc2c(OCC(CNC(C)(C)C)OC(=O)c3ccccc3)cccc2[nH]1 (stereo not drawn)" class_assignment="true (1)"
molecule=CCNC(=O)/C=C/c1cccc(Br)c1 class_assignment="false (0)"
